System: Plasmodium berghei
assay.details: Screen against P. berghei liver stage (PbLuc), transformed with Luciferase, at 10uM
Assay type: functional, HepG2
run.parameters: tested at 10 uM
Hit rate of the full screen: of about 69,000 compounds, about 8,600 (12%) showed an effect of 50% or more. The full list was thinned out, with strong results kept by preference.
Checkbox rule: INHIBITION lower than 20% = satisfied; INHIBITION not lower than 20% = not satisfied.

CN(C)CCN1CCCC12CCN(C(=O)c1ccco1)CC2 : satisfied
Cc1ccc(CN2CC[C@@H]3OCCN(S(C)(=O)=O)[C@H]3CC2)s1 : not satisfied
Cc1ccc(CN2CC[C@H]3[C@H]2CCN3S(=O)(=O)C2CC2)s1 : satisfied
COCCNc1nnc(-c2ccc(C)nc2)s1 : satisfied
Cc1ccc(CN2CC[C@@H]3[C@H]2CCC(=O)N3Cc2ccncc2)s1 : not satisfied
Cc1cccc(CN2C[C@@H]3COC[C@]3(COc3ccc(C#N)cn3)C2)n1 : satisfied
COc1cc(N2C[C@@H]3COC[C@]3(COCc3cccc(C)n3)C2)ncn1 : not satisfied
Cc1ccc(C)c(-n2cc(CN3CCOCC3)c(-c3ccccc3)n2)c1 : not satisfied
COc1cc(N2C[C@@H]3COC[C@]3(COc3ccc(C#N)cn3)C2)ncn1 : not satisfied
Cc1ccc(-n2cc(CN3CCOCC3)c(-c3cccc(C)c3)n2)cc1 : not satisfied
CS(=O)(=O)N1CCO[C@@H]2CCN(Cc3ccncc3)CC[C@H]21 : not satisfied
CC(C)n1ncc2cc(NC(=O)N3CCC(C(N)=O)C3)cnc21 (configuration not stated) : satisfied
CS(=O)(=O)N1CCC(Cc2cnc(Br)cn2)CC1 : not satisfied
Cc1ccc(C)c(-n2cc(CN3CC[C@@H](O)C3)c(-c3ccccc3)n2)c1 : not satisfied
N#Cc1ccc(OC[C@]23COC[C@H]2CN(c2ncccn2)C3)nc1 : satisfied
COCC[C@]1(O)CCN(CC(=O)NCc2ccccn2)C[C@H]1C : not satisfied
O=C(c1cccc(N2CCCC2=O)c1)N1CCCC(n2cccn2)C1 (configuration not stated) : satisfied
Cc1cc(C)c2c(OCC(=O)NCC(O)C(F)(F)F)nn(C)c2n1 (configuration not stated) : satisfied
Cc1ccc(CN2CC[C@H]3[C@H]2CCN3S(C)(=O)=O)s1 : not satisfied
CCc1n[nH]c(C2CN(C(=O)c3cc(C4CC4)on3)CCO2)n1 (configuration not stated) : satisfied
Nc1nnc(CCCNc2ncnc3c2CCN(C(=O)C2CC2)C3)s1 : satisfied

* * *

System: Plasmodium berghei
assay.details: Screen against P. berghei liver stage (PbLuc), transformed with Luciferase, at 10uM
Type: functional, HepG2
run.parameters: tested at 10 uM
The whole screen tested about 69,000 compounds, of which about 8,600 (12%) showed an effect of 50% or more. For the sample, strong results were picked, then their nearest neighbours and some compounds at random.
Listing: INHIBITION of selected compounds
reported.metric: INHIBITION (%)

CCC(=O)c1ccc(OCC(=O)NC(C)Cc2cc(C)n[nH]2)cc1 (stereo not given) : 27.6
Cc1cnc(N2C[C@H]3CCN(CC4CC4)C[C@H]3C2)nc1 : -21.7
CNC(=O)[C@@]12CCO[C@@H]1CCN(Cc1ccc3c(c1)OCO3)C2 : 3.69
CN(Cc1ccccc1)c1ncccc1CNC1CCSCC1 : 51.8
CCC(CC)(CNC(=O)OC(C)(C)C)NC(=O)C1CC1 : -120
Cc1ccnc(CC(C)N(C)c2cc(CN)nc(C)n2)c1 (stereo not given) : 66.5
O=C(NCC1CCOC1)c1ccc(-c2ccccc2)[nH]c1=O (stereo not given) : -26.6
CN(C)CCN1CCCC12CCN(C(=O)c1ccoc1)CC2 : -44.2
Cc1ccnc(CC(C)N(C)c2cc(CCN)nc(C)n2)c1 (stereo not given) : 45.2
O=C(c1ccn(-c2ccc(F)cc2)n1)N1CCCC(n2ccnc2)C1 (stereo not given) : -17
CC(C)NC(=O)[C@@]12CCO[C@@H]1CCN(Cc1ccc3c(c1)OCO3)C2 : 33.5
O=C(c1ccccn1)N1C[C@H]2CC[C@@H](C1)N(C(=O)CCC1CCCC1)C2 : -36.6
Cc1nn(C)cc1C(=O)N1C[C@@H]2CC[C@H]1CN(S(=O)(=O)N(C)C)C2 : -109
O=C(N1CCOCC1)[C@@]12CCO[C@@H]1CCN(CC1CCCC1)C2 : 53.4
CN1N=C(C(=O)NCCc2ccc(OC3CCCC3)cc2)CCC1=O : 45.4
CCN1CCN(C(=O)c2ccc3c(c2)OCC(=O)N3)[C@H]2CS(=O)(=O)C[C@H]21 : 58.2
COc1cccc(N2C(=O)CC3(CCCNC3)C2=O)c1 (stereo not given) : -33.1
Cc1ccc(=O)n(CC2(O)CCN(Cc3ccoc3)CC2)n1 : -59.9
COc1ccnc(N2CCN(C(=O)Cc3ccsc3)CC2)n1 : -47.6
COC1CCN(C(=O)c2ccccc2NCc2cccnc2)CC1 : -30
O=C(N1CCOCC1)[C@@]12CCO[C@@H]1CCN(CC1CCC1)C2 : 22.2
COc1c(C2CCCN2CC(=O)Nc2nccs2)c(C)nn1C (stereo not given) : -24.7
COCCn1cc2c(n1)C(CNCc1cccc(OC)c1)OCC2 (stereo not given) : 17.4
NCC1CCC(C(NC(=O)c2ccccn2)c2ccccn2)CC1 (stereo not given) : 24.4
Cc1cnn(CC(C)Nc2nc3ccccc3o2)c1 (stereo not given) : 21.8
CC1(C(=O)N2CCOCC2)CN(Cc2cccnc2)CCO1 (stereo not given) : 2.71
O=C(N1CCOCC1)[C@@]12CCO[C@@H]1CCN(Cc1ccccc1F)C2 : 36.3
Cc1cccc2c1NC1(CCOCC1)NC2=O : 48
CC(C)OC(=O)NCc1ccc(NCc2cnn(C(C)(C)C)c2)cc1 : 18.9
CCC(CC)(CNC(=O)OC(C)(C)C)NC(=O)C1CCOCC1 : -50.8
CN(C)C(=O)[C@@]12CCO[C@@H]1CCN(Cc1ccc3c(c1)OCO3)C2 : 76.2
O=C(c1ccccn1)N1C[C@H]2CC[C@@H](C1)N(C(=O)CCC(F)(F)F)C2 : 6.33
Cc1cc(C(=O)N2C[C@@H]3CC[C@H]2CN(Cc2ccccn2)C3)nc(N)n1 : 4.59
CC(NCc1ccccc1Cl)c1ccc(OCC(=O)NC2CC2)cc1 (stereo not given) : 48.2
O=C(N1CCOCC1)[C@@]12CCO[C@@H]1CCN(CC1CCCCC1)C2 : 24.5
Cc1cc(CC(C)NC(=O)COc2ccc(F)cc2F)[nH]n1 (stereo not given) : 40.6
CC(=O)N(Cc1ccc(NCc2cnn(C(C)(C)C)c2)cc1)C(C)C : 38.5
Cc1cccc(CN2CC[C@H]3OCC[C@@]3(C(=O)N3CCOCC3)C2)n1 : 12.6
CN(C)Cc1ccnc(C2CN(CCCc3ccccc3)CCO2)n1 (stereo not given) : 42.6
Cc1ccc2c(c1)C(=O)NCC1(CCN(C(=O)c3cnccn3)CC1)O2 : -32.2
CC(=O)N1CCC(NCc2cccnc2N(C)Cc2ccccc2)CC1 : 6.31
CN1CCN(c2ncccn2)CC1C(N)=O (stereo not given) : -7.66
CC(C)(C)n1cc(CNc2ccc(CNS(C)(=O)=O)cc2)cn1 : 74.4
Cc1cc(CN2CC[C@H]3OCC[C@@]3(C(=O)N3CCOCC3)C2)no1 : 14.6
Cc1cc(CN2CC[C@H]3[C@H]2CCN3CC(=O)N(C)C)oc1C : 38.3

* * *

Tested on: Plasmodium berghei
assay.details: Screen against P. berghei liver stage (PbLuc), transformed with Luciferase, at 10uM
Type: functional, HepG2
run.parameters: tested at 10 uM
In all, about 69,000 compounds went through this assay and about 8,600 (12%) showed an effect of 50% or more. The sample as a whole holds a higher share of strong results than the screen did.
reported.metric: INHIBITION (%)

Cc1ccc2c(c1)C1(CCNCC1)CC2N1CCOCC1 (configuration not stated) : -58.9
CSCc1noc(CNC(=O)C2CCN(C(=O)C3CC3)CC2)n1 : 23
COCC(=O)N1C[C@H]2CNC[C@@]2(C(=O)NCc2cccc3[nH]ccc23)C1 : 13.1
COc1ccc(OC)c(C2CC(=O)Nc3nc(N4CCOCC4)sc32)c1 (configuration not stated) : 7.66
CCN(CC)c1ccc(C(=O)N2CCC(c3nc(C)no3)CC2)cn1 : 30.25
O=S(=O)(C1CC1)N1CCO[C@H]2[C@H](OCC3CC3)CC[C@@H]21 : -2.35
CC(C)CS(=O)(=O)CC(=O)NC(C)c1nnc2n1CCC2 (configuration not stated) : 31.3
COCCN1CCC2(CC1)CC(N1CCOCC1)c1cc(C)ccc12 (configuration not stated) : 87.4
N#Cc1ccc(NC2CCN(CC(F)F)CC2)c(F)c1 : 8.53
CCN1CC(CN(C)Cc2nc(-c3cccc(Cl)c3)oc2C)CC1=O (configuration not stated) : 29.8
O=C(NCc1ccco1)[C@@H]1CCO[C@@H]2CCN(c3ncccn3)C[C@@H]21 : 36.9
Cc1nnc(N2C[C@@H](Oc3ccccn3)[C@H]3OCCC[C@H]32)s1 : -23.8
CCCSc1nn(CCCN(C)C)c2nc3sc(C)c(CC)c3c(=O)n12 : 11.6
COCCN1CCC2(CC1)CC(N1CCOCC1)c1ccc(C)cc12 (configuration not stated) : 48.4
c1ccc(-n2ccc(CN3CCCCC3Cn3cncn3)n2)cc1 (configuration not stated) : -10.1
O=C(NC[C@H]1CCCO1)c1ccc(S(=O)(=O)N2C[C@H]3C[C@@H]2CN3)cc1 : 30.7
CCC(=O)N1CCC2(CC1)CC(N1CCOCC1)c1cc(C)ccc12 (configuration not stated) : 61.8
CCn1cc(NC(=O)NCCN2CCCCCC2=O)cn1 : 7.24
O=C(c1ccnc(NC2CC2)c1)N1CCCC1c1cccc(Br)c1 (configuration not stated) : -96.5
CC(Nc1nccc(CCC(F)(F)F)n1)c1nc(-c2ccncc2)no1 (configuration not stated) : 50.4
CC(C)[C@H]1CN(c2cnccn2)C[C@@H]1NC(=O)C1(C#N)CCOCC1 : 49.5
O=C(Cn1cccnc1=O)NC(Cc1ccsc1)c1cccnc1 (configuration not stated) : 14.7

Origin of measurements: ChEMBL document CHEMBL4513216
